Tested on: HCT-15 colon
ASSAY_COMMENT: NCI tumour cell line growth inhibition, 48 h; in the data active = GI50 below about 0.43 µM; inactive = the rest
I would appreciate it if you answered using one of these outcomes: 1 = active, -1 = inactive

| COMPOUND | DISCRETE_LABEL |
| --- | --- |
| COc1ccc(C/C(C)=C(/c2ccc(OCCN3CCCCC3)cc2)c2ccc(OC(=O)NCc3ccccc3)cc2)cc1 | 1 |
| Cc1[nH]c2ccccc2c1CCCO | -1 |
| O=C(Nc1cccc(-n2cc(-c3ccncc3)c(-c3ccc(Cl)c(O)c3)n2)c1)Nc1cc(C(F)(F)F)cc(C(F)(F)F)c1 | -1 |
| Cc1cc([N+](=O)[O-])c(NS(=O)(=O)c2cccc(C(=O)O)c2)cc1-c1cccnc1 | -1 |
| COC1CC(O[C@H]2CC[C@@]3(C)[C@H](CC[C@@H]4[C@@H]3CC[C@]3(C)[C@@H](C5=CC(=O)OC5)[C@@H](OC(C)=O)C[C@]43O)C2)OC(C)C1O (stereo not given in full) | 1 |
| CCCCOC(=O)N1CCN(/[N+]([O-])=N/Oc2ccc([N+](=O)[O-])cc2[N+](=O)[O-])CC1 | -1 |
| Cc1c(C(=O)Nc2ccccc2)sc2ncn(Cc3cccc(Cl)c3)c(=O)c12 | -1 |
| C#CC#CC#CC#CC#CC#CC#CC#CCC1OCC(COC(=O)O[C@@H](C(=O)O[C@H]2C[C@@]3(O)[C@@H](OC(=O)c4ccccc4)[C@@H]4[C@]5(OC(C)=O)CO[C@@H]5C[C@H](O)[C@@]4(C)C(=O)[C@H](OC(C)=O)C(=C2C)C3(C)C)[C@@H](NC(=O)c2ccccc2)c2ccccc2)O1 (stereo not given in full) | -1 |

// outcome(item) with item = CC1(C)C2CCC13C(=O)C1OC3(C2)C2C(=O)c3ccccc3C(=O)C12 (stereo not given) -1

One more compound: Cc1ccccc1OCC(O)CN1CCN(c2ccc(Cl)cc2)CC1 (stereo not given) -1
